Test system: NCI-H1688
Assay: inhibition of cell viability relative to untreated control (fraction); higher = stronger growth inhibition, active = 0.5 or more
Details: 30 µM; 24 h
Counter-ions that a name gives are not always drawn.
Recorded inhibition of cell viability determines the label; the label ranges are 0 = under 0.005, 1 = from 0.005 up to 0.2, 2 = 0.2 and over

[
  {
    "molecule": "COc1cc(C(C)=O)ccc1O",
    "test.target": "NCI-H1688",
    "answer.label": 2
  },
  {
    "molecule": "CCC(C)C(NC(=O)CNC(=O)C(CCC(N)=O)NC(=O)C1CCCN1C(=O)C(CC(=O)O)NC(=O)C(CCCNC(=N)N)NC(=O)C(NC(=O)C(NC(=O)C(N)CCCNC(=N)N)C(C)C)C(C)C)C(=O)NC(CCCNC(=N)N)C(=O)NC(C)C(=O)NC(Cc1c[nH]c2ccccc12)C(=O)NC(C(=O)NC(C)C(=O)NC(Cc1c[nH]c2ccccc12)C(=O)NC(CCCNC(=N)N)C(=O)NC(CC(N)=O)C(=O)NC(CCCNC(=N)N)C(=O)O)C(C)C (stereo not given)",
    "test.target": "NCI-H1688",
    "answer.label": 2
  },
  {
    "molecule": "O=c1c(-c2ccc(O)cc2)coc2cc(O)ccc12",
    "test.target": "NCI-H1688",
    "answer.label": 1
  },
  {
    "molecule": "O=C(O)c1ccc(O)c(O)c1",
    "test.target": "NCI-H1688",
    "answer.label": 1
  },
  {
    "molecule": "CC(C)=CCC[C@](C)(O[C@@H]1O[C@H](CO)[C@@H](O)[C@H](O)[C@H]1O)[C@H]1CC[C@]2(C)[C@@H]1[C@H](O)C[C@@H]1[C@@]3(C)CC[C@H](O)C(C)(C)[C@@H]3[C@@H](O[C@@H]3O[C@H](CO)[C@@H](O)[C@H](O)[C@H]3O[C@@H]3OC[C@@H](O)[C@H](O)[C@H]3O)C[C@]12C [Notoginsenoside R1]",
    "test.target": "NCI-H1688",
    "answer.label": 0
  },
  {
    "molecule": "C[C@@H]1O[C@@H](O[C@@H]2[C@@H](O)[C@H](OCCc3ccc(O)c(O)c3)O[C@H](CO)[C@H]2OC(=O)/C=C/c2ccc(O)c(O)c2)[C@H](O)[C@H](O)[C@H]1O [Verbascoside]",
    "test.target": "NCI-H1688",
    "answer.label": 1
  },
  {
    "molecule": "CC[C@@]1(O)C(=O)OCc2c1cc1n(c2=O)Cc2cc3cc(O)ccc3nc2-1 [10-Hydroxycamptothecin]",
    "test.target": "NCI-H1688",
    "answer.label": 2
  },
  {
    "molecule": "C[C@H]1O[C@@H](O[C@H]2[C@@H](O)C[C@H](O[C@H]3[C@@H](O)C[C@H](O[C@H]4CC[C@@]5(C)[C@H](CC[C@@H]6[C@@H]5C[C@@H](O)[C@]5(C)[C@@H](C7=CC(=O)OC7)CC[C@]65O)C4)O[C@@H]3C)O[C@@H]2C)C[C@H](O)[C@@H]1O",
    "test.target": "NCI-H1688",
    "answer.label": 2
  },
  {
    "molecule": "C[C@H]1[C@@H](O)O[C@@H]2O[C@@]3(C)CC[C@H]4[C@H](C)CC[C@@H]1[C@@]24OO3 [Dihydroartemisinin]",
    "test.target": "NCI-H1688",
    "answer.label": 2
  },
  {
    "molecule": "CC[C@H]1OC(=O)C[C@@H](O)[C@H](C)[C@@H](O[C@@H]2O[C@H](C)[C@@H](O[C@H]3C[C@@](C)(O)[C@@H](O)[C@H](C)O3)[C@H](N(C)C)[C@H]2O)[C@@H](CC=O)C[C@@H](C)C(=O)/C=C/C(C)=C/[C@@H]1CO[C@@H]1O[C@H](C)[C@@H](O)[C@@H](OC)[C@H]1OC",
    "test.target": "NCI-H1688",
    "answer.label": 1
  },
  {
    "molecule": "O=C1C[C@@H](c2ccc(O)cc2)Oc2cc(O)cc(O)c21",
    "test.target": "NCI-H1688",
    "answer.label": 0
  },
  {
    "molecule": "COc1ccc(/C=C/C(=O)O)cc1O",
    "test.target": "NCI-H1688",
    "answer.label": 0
  },
  {
    "molecule": "C[C@@H]1CCCCCCCCCCCCC(=O)C1",
    "test.target": "NCI-H1688",
    "answer.label": 0
  },
  {
    "molecule": "C[C@]12CC[C@@H]3c4ccc(O)cc4CC[C@H]3[C@@H]1CCC2=O",
    "test.target": "NCI-H1688",
    "answer.label": 1
  },
  {
    "molecule": "O=C(O)CCCCCCCC(O)C(O)CCCCCCO (stereo not given)",
    "test.target": "NCI-H1688",
    "answer.label": 0
  },
  {
    "molecule": "C1CCN2C[C@@H]3C[C@@H](CN4CCCC[C@@H]34)[C@H]2C1 [(-)-Sparteine sulfate pentahydrate]",
    "test.target": "NCI-H1688",
    "answer.label": 2
  },
  {
    "molecule": "CC(C)c1cc(C(C)C)c(CC(=O)NS(=O)(=O)Oc2c(C(C)C)cccc2C(C)C)c(C(C)C)c1",
    "test.target": "NCI-H1688",
    "answer.label": 2
  },
  {
    "molecule": "COc1cc2c(c(OC)c1OC)-c1c(cc(OC)c(OC)c1OC)CC(C)C(C)C2 (stereo not given)",
    "test.target": "NCI-H1688",
    "answer.label": 0
  },
  {
    "molecule": "C[C@H]1O[C@H](O[C@H]2[C@H](O)[C@@H](O)[C@@H](O[C@H]3[C@H](O)[C@@H](O)C(O)O[C@@H]3CO)O[C@@H]2CO)[C@H](O)[C@@H](O)[C@@H]1N[C@H]1C=C(CO)[C@@H](O)[C@H](O)[C@H]1O (stereo not given in full)",
    "test.target": "NCI-H1688",
    "answer.label": 0
  },
  {
    "molecule": "CC(C)C1=CC2=CC[C@@H]3[C@](C)(CCC[C@@]3(C)C(=O)O)[C@H]2CC1",
    "test.target": "NCI-H1688",
    "answer.label": 1
  },
  {
    "molecule": "Oc1cc(O)c2c(c1)O[C@H](c1ccc(O)c(O)c1)[C@@H](O)C2 [Cianidanol]",
    "test.target": "NCI-H1688",
    "answer.label": 2
  },
  {
    "molecule": "CC1(C)CC[C@]2(C)CC[C@]3(C)C(=CC[C@@H]4[C@@]5(C)CC[C@@H](O)[C@](C)(C(=O)O)[C@@H]5CC[C@]43C)[C@@H]2C1",
    "test.target": "NCI-H1688",
    "answer.label": 2
  },
  {
    "molecule": "COc1ccc2c(C)cc(=O)oc2c1",
    "test.target": "NCI-H1688",
    "answer.label": 0
  }
]

----------
Tested on: NCI-H1688
Assay: inhibition of cell viability relative to untreated control (fraction); higher = stronger growth inhibition, active = 0.5 or more
Details: 30 µM; 24 h
Structures can show the parent of a compound that is named as a salt.
Outcomes: TRUE for active, FALSE for inactive

[
  {
    "molecule": "CC[C@]1(O)C[C@@H]2CN(CCc3c([nH]c4ccccc34)[C@@](C(=O)OC)(c3cc4c(cc3OC)N(C)[C@H]3[C@@](O)(C(=O)OC)[C@H](OC(C)=O)[C@]5(CC)C=CCN6CC[C@]43[C@@H]65)C2)C1 [Vinblastine sulfate]",
    "answer.label": "TRUE"
  },
  {
    "molecule": "Cn1c(=O)c2c(ncn2CC(=O)O)n(C)c1=O",
    "answer.label": "FALSE"
  },
  {
    "molecule": "CC(=O)O[C@H]1C(=O)[C@@]2(C)[C@H]([C@H](OC(=O)c3ccccc3)[C@]3(O)C[C@H](OC(=O)[C@H](O)[C@@H](NC(=O)c4ccccc4)c4ccccc4)C(C)=C1C3(C)C)[C@]1(OC(C)=O)CO[C@@H]1C[C@@H]2O",
    "answer.label": "TRUE"
  },
  {
    "molecule": "CC(=O)N[C@H]1[C@H]([C@H](O)[C@H](O)CO)OC(O)(C(=O)O)C[C@@H]1O (stereo not given in full)",
    "answer.label": "FALSE"
  },
  {
    "molecule": "O=c1c2cc(O)c(O)cc2oc2cc(O)c([C@@H]3O[C@H](CO)[C@@H](O)[C@H](O)[C@H]3O)c(O)c12",
    "answer.label": "FALSE"
  }
]
